Conditions: Liquid; Direct measurement
measured_metric: Critical pressure (kPa)

The cases that follow already have their Critical pressure on record.
>>> recorded_measurement("CC(=O)c1ccc[cH-]1.[Fe+2].c1cc[cH-]c1 [acetylferrocene]")
3280
>>> recorded_measurement("CCCC[c-]1cccc1.[Fe+2].c1cc[cH-]c1 [butylferrocene]")
2180

I. O=C(c1ccccc1)c1ccc[cH-]1.[Fe+2].c1cc[cH-]c1 [benzoylferrocene]
II. [CH]1C=CC=C1.[CH]1C=CC=C1.[Fe] [ferrocene]
query: Decide: I or II , by lowest recorded Critical pressure. Label of pick, please.
result: I

###

Conditions: Liquid; Pulse Heating
measured_metric: Critical temperature (K)

>>> recorded_measurement("CC(=O)c1ccc[cH-]1.[Fe+2].c1cc[cH-]c1")
847
>>> recorded_measurement("[CH]1C=CC=C1.[CH]1C=CC=C1.[Fe]")
785
>>> recorded_measurement("CCCC[c-]1cccc1.[Fe+2].c1cc[cH-]c1")
784
>>> recorded_measurement("O=C(c1ccccc1)c1ccc[cH-]1.[Fe+2].c1cc[cH-]c1")
886
